# maps each entry to its Kd
- EXPERIMENTAL_SYSTEM: SulE (Hansschlegelia zhihuaiae, UniProt G9I933)
- Construct: pET-29a(+), E. coli BL21(DE3), C-terminal His6 tag; full-length precursor 398 aa, predicted signal peptide cleavage Ala37/Glu38; homodimer, lid loop of one subunit covers active site of the other; residues 12-360 (mature count) seen in crystal
- Sequence (G9I933 entry or part of it): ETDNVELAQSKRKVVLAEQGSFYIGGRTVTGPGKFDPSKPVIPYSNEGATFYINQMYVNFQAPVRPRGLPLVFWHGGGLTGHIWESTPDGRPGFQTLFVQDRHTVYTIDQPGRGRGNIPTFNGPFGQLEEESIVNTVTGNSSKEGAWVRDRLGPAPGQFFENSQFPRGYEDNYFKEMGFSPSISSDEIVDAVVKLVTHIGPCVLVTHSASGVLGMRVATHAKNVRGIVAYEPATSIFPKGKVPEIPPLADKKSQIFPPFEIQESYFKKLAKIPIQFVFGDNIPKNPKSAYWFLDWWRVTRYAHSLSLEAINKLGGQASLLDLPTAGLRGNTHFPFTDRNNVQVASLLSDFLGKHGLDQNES
- ASSAY_INFO: SPR (Biacore T200, protein amine-coupled to CM7 chip), steady-state affinity
Remember to put the unit after the number in your answer.

Example entries and their recorded answers appear below.
Q: Report Kd for `COC(=O)c1ccccc1S(=O)(=O)NC(=O)Nc1nc(C)nc(OC)n1` please.
Ans: 5.58 µM

Q: Another compound: `COC(=O)c1sccc1S(=O)(=O)NC(=O)Nc1nc(C)nc(OC)n1`
Ans: 8.85 µM

Q: Next: `CCOC(=O)c1ccccc1S(=O)(=O)NC(=O)Nc1nc(Cl)cc(OC)n1`
Ans: 5.29 µM

Okay, now this compound:
Q: Sample `COC(=O)c1ccccc1CS(=O)(=O)NC(=O)Nc1nc(OC)cc(OC)n1` — what was its Kd?
Ans: 6.34 µM
